Data origin: paper PMC12125102

molecular target: OCT1 (organic cation transporter 1) (Homo sapiens); test: inhibition of metformin uptake in HEK293-Flp-In-OCT1 cells, […] min pre-incubation, UPLC-MS/MS
Sequence (O15245 whole entry): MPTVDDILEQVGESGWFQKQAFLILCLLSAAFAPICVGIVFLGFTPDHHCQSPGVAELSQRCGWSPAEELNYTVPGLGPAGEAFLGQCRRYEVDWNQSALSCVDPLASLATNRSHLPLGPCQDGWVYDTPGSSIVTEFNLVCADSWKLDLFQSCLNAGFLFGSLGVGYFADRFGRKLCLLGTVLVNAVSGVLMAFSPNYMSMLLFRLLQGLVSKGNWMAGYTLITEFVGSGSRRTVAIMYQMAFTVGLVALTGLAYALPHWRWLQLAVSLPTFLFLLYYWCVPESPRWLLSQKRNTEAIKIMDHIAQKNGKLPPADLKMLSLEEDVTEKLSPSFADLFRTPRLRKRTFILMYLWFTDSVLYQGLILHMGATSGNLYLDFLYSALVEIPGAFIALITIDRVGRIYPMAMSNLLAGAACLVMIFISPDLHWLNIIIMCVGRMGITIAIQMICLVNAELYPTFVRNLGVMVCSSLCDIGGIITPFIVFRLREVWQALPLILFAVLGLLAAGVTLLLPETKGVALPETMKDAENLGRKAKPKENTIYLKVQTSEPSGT
observed property: pIC50
FYI, pIC50 means -log10 of a concentration in mol per litre.

Quick note, pIC50 for O[C@@H](COc1cccc2ncccc12)CN1CCN([C@@H]2c3ccccc3[C@@H]3[C@H](c4ccccc42)C3(F)F)CC1 [zosuquidar] landed at 5.12
